# Test system: B. cereus
# assay_info: MIC assay, antibiotic with or without DSF-family molecules
# Format: cell-based, Bacillus cereus
# assay_conditions: 50 μM DSF-family molecule vs MeOH control
readout_name: Fold change of MIC of Gentamicin
Lab note: jot the number down without any unit.

// below: answered molecules
chemical_string	test_system	Fold change of MIC of Gentamicin
CCCCCCCC/C=C\C(=O)O	B. cereus	16
CCCCCCCCC/C=C/C(=O)O	B. cereus	21.3
CCCCCCC/C=C\C(=O)O	B. cereus	2

In the following, a different molecule is considered.
Item CCCCCCCC/C=C/C(=O)O was tested on B. cereus; the reported Fold change of MIC of Gentamicin is 16

----------
# Tested on: B. cereus
# assay_info: MIC assay, antibiotic with or without DSF-family molecules
# Type: cell-based, Bacillus cereus
# assay_conditions: 50 μM DSF-family molecule vs MeOH control
Note to self: use condition met only for Fold change of MIC of Gentamicin readings below 4; a reading exactly at 4 still gets condition not met.

compound	assigned_label
CCCCCCCCCCC/C=C/C(=O)O [Compound T14]	condition not met
CC(C)CCCCCCC/C=C\C(=O)O [DSF, cis 11-methyl-2-dodecenoic acid]	condition not met
CCCCCCCCCCCC/C=C/C(=O)O [Compound T15]	condition met
CCCCCCCCCCC/C=C\C(=O)O [Compound C14]	condition not met
CCCCCCCCC/C=C\C(=O)O [Compound C12]	condition not met
CCCCCCCCCC/C=C/C(=O)O [Compound T13]	condition not met
CCCCC/C=C\C(=O)O [Compound C8]	condition met
CCCCCCCCCCCC/C=C\C(=O)O [Compound C15]	condition not met

Ask | # check: Fold change of MIC of Gentamicin < 4 for CCCCCCCCCC/C=C\C(=O)O [Compound C13]
Reply | condition not met

Ask | # check: Fold change of MIC of Gentamicin < 4 for CCCCCCC/C=C/C(=O)O [Compound T10]
Reply | condition met

Ask | # check: Fold change of MIC of Gentamicin < 4 for CCCCC/C=C/C(=O)O [Compound T8]
Reply | condition met
